- Tested on: Staphylococcus aureus MW2 (mecA+)
- ASSAY_INFO: IC50 (growth, competition assay)
- CONDITION_DETAILS: fluorescent label: DsRed; cefoxitin: subinhibitory
pIC50: −log10 of the molar value. Structures can show the parent of a compound that is named as a salt.

>  <COMPOUND>
CC(C)(C)c1cc(C(C)(C)C)c(NC(=O)c2c[nH]c3ccccc3c2=O)cc1O

>  <COMPARISON_SIGN>
=

>  <pIC50>
5.01

$$$$
>  <COMPOUND>
CN[C@H]1CC[C@@H](c2ccc(Cl)c(Cl)c2)c2ccccc21 [Sertraline HCl]

>  <COMPARISON_SIGN>
=

>  <pIC50>
4.02

$$$$
>  <COMPOUND>
CO/N=C(\C(=O)N[C@@H]1C(=O)N2C(C(=O)O)=C(CSc3nnnn3C)CS[C@H]12)c1csc(N)n1

>  <COMPARISON_SIGN>
>

>  <pIC50>
5.01

$$$$
>  <COMPOUND>
COCC(=O)O[C@]1(CCN(C)CCCc2nc3ccccc3[nH]2)CCc2cc(F)ccc2[C@@H]1C(C)C [Mibefradil dihydrochloride]

>  <COMPARISON_SIGN>
=

>  <pIC50>
4.39

$$$$
>  <COMPOUND>
Clc1ccc(COC(Cn2ccnc2)c2ccc(Cl)cc2Cl)c(Cl)c1 (stereo not drawn)

>  <COMPARISON_SIGN>
>

>  <pIC50>
5.01

$$$$
>  <COMPOUND>
COc1c(N2C[C@@H]3CCCN[C@@H]3C2)c(F)cc2c(=O)c(C(=O)O)cn(C3CC3)c12 [Moxifloxacin hydrochloride]

>  <COMPARISON_SIGN>
>

>  <pIC50>
6.30

$$$$
>  <COMPOUND>
O=C(O[C@@H]1Cc2c(O)cc(O)cc2O[C@@H]1c1cc(O)c(=O)c2c(O)c(O)cc([C@H]3Oc4cc(O)cc(O)c4C[C@H]3O)c2c1)c1cc(O)c(O)c(O)c1

>  <COMPARISON_SIGN>
=

>  <pIC50>
3.95

$$$$
>  <COMPOUND>
O=C(O)c1cn(-c2ccc(F)cc2)c2cc(N3CCNCC3)c(F)cc2c1=O [Sarafloxacin HCl]

>  <COMPARISON_SIGN>
>

>  <pIC50>
6.30

$$$$

---

- System: Staphylococcus aureus MW2 (mecA+)
- ASSAY_INFO: IC50 (growth, competition assay)
- CONDITION_DETAILS: fluorescent label: DsRed; cefoxitin: subinhibitory

>  <COMPOUND>
O=C(O)c1ccc2cc(-c3ccc(O)c(C45CC6CC(CC(C6)C4)C5)c3)ccc2c1

>  <ASSAY_TARGET>
Staphylococcus aureus MW2 (mecA+)

>  <IC50>
< 9.85 µM

$$$$
>  <COMPOUND>
COC1=C2C[C@@H](C)C[C@H](OC)[C@H](O)[C@@H](C)/C=C(\C)[C@H](OC(N)=O)[C@@H](OC)/C=C\C=C(/C)C(=O)NC(=CC1=O)C2=O

>  <ASSAY_TARGET>
Staphylococcus aureus MW2 (mecA+)

>  <IC50>
< 9.85 µM

$$$$
>  <COMPOUND>
O=c1[nH]c(=O)n([C@H]2C[C@H](O)[C@@H](CO)O2)cc1F [Floxuridine]

>  <ASSAY_TARGET>
Staphylococcus aureus MW2 (mecA+)

>  <IC50>
< 0.498 µM

$$$$
>  <COMPOUND>
CC1COc2c(N3CCN(C)CC3)c(F)cc3c(=O)c(C(=O)O)cn1c23 (centres undefined) [FLOXIN]

>  <ASSAY_TARGET>
Staphylococcus aureus MW2 (mecA+)

>  <IC50>
< 9.85 µM

$$$$

---

- Test system: Staphylococcus aureus MW2 (mecA+)
- ASSAY_INFO: IC50 (growth, competition assay)
- CONDITION_DETAILS: fluorescent label: DsRed; cefoxitin: subinhibitory
Counter-ions that a name gives are not always drawn.
Each record here notes measured log10 of IC50.
MEASUREMENT_TYPE: log10 of IC50 (log10 of the value in µM)

>  <MOLECULE>
CC1=C(O)C(=O)C=C2C1=CC=C1[C@@]2(C)CC[C@@]2(C)[C@@H]3C[C@](C)(C(=O)O)CC[C@]3(C)CC[C@]12C [Celastrol]

>  <log10 of IC50>
0.22

$$$$
>  <MOLECULE>
O=C1NC(=O)[C@@H](c2cn3c4c(cccc24)CCC3)[C@@H]1c1c[nH]c2ccccc12 [ARQ 197 (Tivantinib)]

>  <log10 of IC50>
2.03

$$$$
>  <MOLECULE>
OCCN1CCN(CCCN2c3ccccc3Sc3ccc(Cl)cc32)CC1 [Perphenazine]

>  <log10 of IC50>
1.85

$$$$
>  <MOLECULE>
C[C@H]1O[C@@H](n2cc(F)c(=O)[nH]c2=O)[C@H](O)[C@@H]1O [FURTULON]

>  <log10 of IC50>
1.01

$$$$
>  <MOLECULE>
O=C(CCCCCN1CCN(c2ccccc2-c2ccccc2)CC1)NC1CCCc2ccccc21 (stereo not drawn) [LP 12 hydrochloride hydrate]

>  <log10 of IC50>
1.24

$$$$

---

Each record here notes measured pIC50.
- System: Staphylococcus aureus MW2 delta-mecA (mecA-)
- ASSAY_INFO: IC50 (growth, competition assay)
- CONDITION_DETAILS: fluorescent label: DsRed; cefoxitin: subinhibitory
pIC50: −log10 of the molar value. Structures can show the parent of a compound that is named as a salt.

>  <COMPOUND>
CN[C@H](CC(C)C)C(=O)N[C@H]1C(=O)N[C@@H](CC(N)=O)C(=O)N[C@H]2C(=O)N[C@H]3C(=O)N[C@H](C(=O)N[C@H](C(=O)O)c4cc(O)cc(O)c4-c4cc3ccc4O)[C@H](O)c3ccc(c(Cl)c3)Oc3cc2cc(c3O[C@@H]2O[C@H](CO)[C@@H](O)[C@H](O)[C@H]2O[C@H]2C[C@](C)(N)[C@H](O)[C@H](C)O2)Oc2ccc(cc2Cl)[C@H]1O [Vancomycin HCl (Vancocin)]

>  <COMPARISON_SIGN>
>

>  <pIC50>
5.01

$$$$
>  <COMPOUND>
O=C1[C@H](CC[C@H](O)c2ccc(F)cc2)[C@@H](c2ccc(O)cc2)N1c1ccc(F)cc1 [ZETIA]

>  <COMPARISON_SIGN>
=

>  <pIC50>
4.59

$$$$

---

- Tested on: Staphylococcus aureus MW2 delta-mecA (mecA-)
- ASSAY_INFO: IC50 (growth, competition assay)
- CONDITION_DETAILS: fluorescent label: DsRed; cefoxitin: subinhibitory
pIC50: −log10 of the molar value. Counter-ions that a name gives are not always drawn.

>  <COMPOUND>
O=C(O)Cc1cc(I)c(Oc2cc(I)c(O)c(I)c2)c(I)c1

>  <COMPARISON_SIGN>
>

>  <pIC50>
5.01

$$$$
>  <COMPOUND>
CC(C)n1cnc2c(NCCc3ccc(O)cc3)nc(-c3csc4ccccc34)nc21

>  <COMPARISON_SIGN>
=

>  <pIC50>
4.82

$$$$
>  <COMPOUND>
O=C(O)c1cn(-c2ccc(F)cc2)c2cc(N3CCNCC3)c(F)cc2c1=O [Sarafloxacin HCl]

>  <COMPARISON_SIGN>
>

>  <pIC50>
6.30

$$$$
>  <COMPOUND>
CCN1CCN(c2cc3c(cc2F)c(=O)c(C(=O)O)cn3C2CC2)CC1 [Enrofloxacin]

>  <COMPARISON_SIGN>
>

>  <pIC50>
5.01

$$$$
>  <COMPOUND>
Oc1c(Cl)cc(Cl)cc1Sc1cc(Cl)cc(Cl)c1O

>  <COMPARISON_SIGN>
>

>  <pIC50>
5.01

$$$$
>  <COMPOUND>
Cc1cc(N)c2ccccc2[n+]1CCCCCCCCCC[n+]1c(C)cc(N)c2ccccc21 [Dequalinium chloride hydrate]

>  <COMPARISON_SIGN>
>

>  <pIC50>
5.01

$$$$
>  <COMPOUND>
Cc1nc2sccn2c(=O)c1CCN1CCC(=C(c2ccc(F)cc2)c2ccc(F)cc2)CC1

>  <COMPARISON_SIGN>
=

>  <pIC50>
4.76

$$$$
>  <COMPOUND>
CCCCC(CC)CN=C(N)N=C(N)NCCCCCCNC(N)=NC(N)=NCC(CC)CCCC (stereo unspecified) [ALEXIDINE HYDROCHLORIDE]

>  <COMPARISON_SIGN>
>

>  <pIC50>
5.01

$$$$
>  <COMPOUND>
Cc1coc2c1C(=O)C(=O)c1c-2ccc2c(C)cccc12

>  <COMPARISON_SIGN>
=

>  <pIC50>
4.12

$$$$
>  <COMPOUND>
CC(=O)OCC(=O)[C@H]1CC[C@H]2[C@@H]3CCC4=CC(=O)CC[C@]4(C)[C@H]3CC[C@]12C

>  <COMPARISON_SIGN>
=

>  <pIC50>
4.57

$$$$
>  <COMPOUND>
Cc1ccc(C(=O)Nc2ccc(CN3CCN(C)CC3)c(C(F)(F)F)c2)cc1C#Cc1cnc2cccnn12

>  <COMPARISON_SIGN>
=

>  <pIC50>
5.08

$$$$
>  <COMPOUND>
CCC(=O)O[C@H]1[C@H](O[C@@H]2[C@@H](C)[C@H](O[C@H]3C[C@@](C)(OC)[C@@H](O)[C@H](C)O3)[C@@H](C)C(=O)O[C@H](CC)[C@@](C)(O)[C@H](O)[C@@H](C)C(=O)[C@H](C)C[C@@]2(C)O)O[C@H](C)C[C@@H]1N(C)C

>  <COMPARISON_SIGN>
>

>  <pIC50>
5.01

$$$$
>  <COMPOUND>
CC(=O)NC[C@H]1CN(c2ccc(N3CCOCC3)c(F)c2)C(=O)O1 [Linezolid]

>  <COMPARISON_SIGN>
>

>  <pIC50>
5.01

$$$$
>  <COMPOUND>
CN1CCN(CCCN2c3ccccc3Sc3ccc(C(F)(F)F)cc32)CC1 [Trifluoperazine 2HCl]

>  <COMPARISON_SIGN>
=

>  <pIC50>
4.78

$$$$
>  <COMPOUND>
CC(=O)[C@H]1CC[C@H]2[C@@H]3CC=C4C[C@@H](OC(=O)CCC(=O)O)CC[C@]4(C)[C@H]3CC[C@]12C

>  <COMPARISON_SIGN>
=

>  <pIC50>
4.74

$$$$
>  <COMPOUND>
Cn1sc(=O)n(Cc2ccccc2)c1=O

>  <COMPARISON_SIGN>
>

>  <pIC50>
5.01

$$$$
